The reported measurements were obtained from the NIST ThermoML archive (doi:10.1016/j.fluid.2018.09.024).

In this section, each of the compounds is paired with its reported activity coefficient.
# Test Details: activity coefficient (dimensionless); of the first substance listed, at infinite dilution; xn = mol fraction of the nth substance listed
# Particulars: 328.15 K; 101.33 kPa; Liquid; Chromatography; x1 = 0
Answer with a bare number; do not write a unit.

Here's what some known entries look like.
Compound: CCCCCC [hexane] + CCCCCCCCCCCC[N+](C)(C)CCOc1ccccc1.N#C[N-]C#N
activity coefficient: 5.12
--
Compound: CCCc1ccccc1 [propylbenzene] + CCCCCCCCCCCC[N+](C)(C)CCOc1ccccc1.N#C[N-]C#N
activity coefficient: 1.71
--
Compound: C=CCCCC [hex-1-ene] + CCCCCCCCCCCC[N+](C)(C)CCOc1ccccc1.O=S(=O)([N-]S(=O)(=O)C(F)(F)F)C(F)(F)F
activity coefficient: 2.24
--
Compound: CCC(C)CC [3-methylpentane] + CCCCCCCCCCCC[N+](C)(C)CCOc1ccccc1.N#C[N-]C#N
activity coefficient: 5.3
--
Compound: CCCC(=O)OC [methyl butanoate] + CCCCCCCCCCCC[N+](C)(C)CCOc1ccccc1.N#C[N-]C#N
activity coefficient: 1.29
--
Compound: C=CCCCC [hex-1-ene] + CCCCCCCCCCCC[N+](C)(C)CCOc1ccccc1.N#C[N-]C#N
activity coefficient: 3.59
--
Compound: c1ccncc1 [pyridine] + CCCCCCCCCCCC[N+](C)(C)CCOc1ccccc1.N#C[N-]C#N
activity coefficient: 0.586
--
Compound: C1CCOC1 [tetrahydrofuran] + CCCCCCCCCCCC[N+](C)(C)CCOc1ccccc1.O=S(=O)([N-]S(=O)(=O)C(F)(F)F)C(F)(F)F
activity coefficient: 0.39

The compound identified as C1CCCCCCC1 [cyclooctane] + CCCCCCCCCCCC[N+](C)(C)CCOc1ccccc1.O=S(=O)([N-]S(=O)(=O)C(F)(F)F)C(F)(F)F registered its activity coefficient at 2.61
